- tgt: T1, His-Avidin-FKBP (wild-type FKBP) (biotinylated)
- T1 construct: also called biotinylated wild-type FKBP; biotinylated FKBP
- protocol: AlphaLISA direct binding assay: 30 nM FLAG-FRB and 30 nM biotinylated FKBP, everolimus titrated 1:3 from 600 nM (EC50 is of everolimus)
parameter: EC50 (nM)

- binder: "His-FLAG-FRB (wild-type FRB) (other, also called wild type Flag-FRB) MGHHHHHHHHGSDYKDDDDKGSASRILWHEMWHEGLEEASRLYFGERNVKGMFEVLEPLHAMMERGPQTLKETSFNQAYGRDLMEAQEWCRKYMKSGNVKDLTQAWDLYYHVFRRISKTS"
  value measured: 3.9
- binder: "His-FLAG-FRB E2032L (other, The entry already carries the mutation) MGHHHHHHHHGSDYKDDDDKGSASRILWHEMWHEGLLEASRLYFGERNVKGMFEVLEPLHAMMERGPQTLKETSFNQAYGRDLMEAQEWCRKYMKSGNVKDLTQAWDLYYHVFRRISKTS"
  value measured: 2.15
- binder: "His-FLAG-FRB E2032I (other, The entry already carries the mutation) MGHHHHHHHHGSDYKDDDDKGSASRILWHEMWHEGLIEASRLYFGERNVKGMFEVLEPLHAMMERGPQTLKETSFNQAYGRDLMEAQEWCRKYMKSGNVKDLTQAWDLYYHVFRRISKTS"
  value measured: 2.46
- binder: "His-FLAG-FRB T2098L (other, The entry already carries the mutation) MGHHHHHHHHGSDYKDDDDKGSASRILWHEMWHEGLEEASRLYFGERNVKGMFEVLEPLHAMMERGPQTLKETSFNQAYGRDLMEAQEWCRKYMKSGNVKDLLQAWDLYYHVFRRISKTS"
  value measured: 1.44
